Where do the numbers come from? From PubChem BioAssay (NCI).

- Test system: NCI-H23 lung
- protocol_text: NCI tumour cell line growth inhibition, 48 h
Please respond with reported TGI for every item in the list.
One number for each entry, in µM.

Before answering, review these 2 worked examples.
>>> endpoint_value("N#CC(C#N)=C/C=C/c1cccc([N+](=O)[O-])c1")
4.26
>>> endpoint_value("Brc1ccc2[nH]cc(-c3nc(-c4c[nH]c5ccncc45)cs3)c2c1")
3.17

**Q:** # return TGI of COS(=O)CCOC(=O)c1ccccc1SSc1ccccc1C(=O)OCCS(=O)OC (configuration not stated) (system: NCI-H23 lung)
**A:** 44.4

====

Please respond with reported TGI for every item in the list.
- Test system: UACC-62 melanoma
- protocol_text: NCI tumour cell line growth inhibition, 48 h

Before answering, review these 2 worked examples.
>>> endpoint_value("NC(Cc1ccccc1)C(=O)O (stereo not drawn)")
"> 100 µM"
>>> endpoint_value("CC12CC(=O)NN=C1c1ccccc1C2 (stereo not drawn)")
"> 100 µM"

Now let's try a different one.
**Q:** Indicate the recorded TGI value for this compound: Nc1ncc(Cc2nn3c(COc4ccc(Cl)cc4)nnc3s2)s1
**A:** > 100 µM
